Target: Voltage-dependent T-type calcium channel subunit alpha-1H (Homo sapiens, UniProt O95180)
Sequence (O95180 whole entry): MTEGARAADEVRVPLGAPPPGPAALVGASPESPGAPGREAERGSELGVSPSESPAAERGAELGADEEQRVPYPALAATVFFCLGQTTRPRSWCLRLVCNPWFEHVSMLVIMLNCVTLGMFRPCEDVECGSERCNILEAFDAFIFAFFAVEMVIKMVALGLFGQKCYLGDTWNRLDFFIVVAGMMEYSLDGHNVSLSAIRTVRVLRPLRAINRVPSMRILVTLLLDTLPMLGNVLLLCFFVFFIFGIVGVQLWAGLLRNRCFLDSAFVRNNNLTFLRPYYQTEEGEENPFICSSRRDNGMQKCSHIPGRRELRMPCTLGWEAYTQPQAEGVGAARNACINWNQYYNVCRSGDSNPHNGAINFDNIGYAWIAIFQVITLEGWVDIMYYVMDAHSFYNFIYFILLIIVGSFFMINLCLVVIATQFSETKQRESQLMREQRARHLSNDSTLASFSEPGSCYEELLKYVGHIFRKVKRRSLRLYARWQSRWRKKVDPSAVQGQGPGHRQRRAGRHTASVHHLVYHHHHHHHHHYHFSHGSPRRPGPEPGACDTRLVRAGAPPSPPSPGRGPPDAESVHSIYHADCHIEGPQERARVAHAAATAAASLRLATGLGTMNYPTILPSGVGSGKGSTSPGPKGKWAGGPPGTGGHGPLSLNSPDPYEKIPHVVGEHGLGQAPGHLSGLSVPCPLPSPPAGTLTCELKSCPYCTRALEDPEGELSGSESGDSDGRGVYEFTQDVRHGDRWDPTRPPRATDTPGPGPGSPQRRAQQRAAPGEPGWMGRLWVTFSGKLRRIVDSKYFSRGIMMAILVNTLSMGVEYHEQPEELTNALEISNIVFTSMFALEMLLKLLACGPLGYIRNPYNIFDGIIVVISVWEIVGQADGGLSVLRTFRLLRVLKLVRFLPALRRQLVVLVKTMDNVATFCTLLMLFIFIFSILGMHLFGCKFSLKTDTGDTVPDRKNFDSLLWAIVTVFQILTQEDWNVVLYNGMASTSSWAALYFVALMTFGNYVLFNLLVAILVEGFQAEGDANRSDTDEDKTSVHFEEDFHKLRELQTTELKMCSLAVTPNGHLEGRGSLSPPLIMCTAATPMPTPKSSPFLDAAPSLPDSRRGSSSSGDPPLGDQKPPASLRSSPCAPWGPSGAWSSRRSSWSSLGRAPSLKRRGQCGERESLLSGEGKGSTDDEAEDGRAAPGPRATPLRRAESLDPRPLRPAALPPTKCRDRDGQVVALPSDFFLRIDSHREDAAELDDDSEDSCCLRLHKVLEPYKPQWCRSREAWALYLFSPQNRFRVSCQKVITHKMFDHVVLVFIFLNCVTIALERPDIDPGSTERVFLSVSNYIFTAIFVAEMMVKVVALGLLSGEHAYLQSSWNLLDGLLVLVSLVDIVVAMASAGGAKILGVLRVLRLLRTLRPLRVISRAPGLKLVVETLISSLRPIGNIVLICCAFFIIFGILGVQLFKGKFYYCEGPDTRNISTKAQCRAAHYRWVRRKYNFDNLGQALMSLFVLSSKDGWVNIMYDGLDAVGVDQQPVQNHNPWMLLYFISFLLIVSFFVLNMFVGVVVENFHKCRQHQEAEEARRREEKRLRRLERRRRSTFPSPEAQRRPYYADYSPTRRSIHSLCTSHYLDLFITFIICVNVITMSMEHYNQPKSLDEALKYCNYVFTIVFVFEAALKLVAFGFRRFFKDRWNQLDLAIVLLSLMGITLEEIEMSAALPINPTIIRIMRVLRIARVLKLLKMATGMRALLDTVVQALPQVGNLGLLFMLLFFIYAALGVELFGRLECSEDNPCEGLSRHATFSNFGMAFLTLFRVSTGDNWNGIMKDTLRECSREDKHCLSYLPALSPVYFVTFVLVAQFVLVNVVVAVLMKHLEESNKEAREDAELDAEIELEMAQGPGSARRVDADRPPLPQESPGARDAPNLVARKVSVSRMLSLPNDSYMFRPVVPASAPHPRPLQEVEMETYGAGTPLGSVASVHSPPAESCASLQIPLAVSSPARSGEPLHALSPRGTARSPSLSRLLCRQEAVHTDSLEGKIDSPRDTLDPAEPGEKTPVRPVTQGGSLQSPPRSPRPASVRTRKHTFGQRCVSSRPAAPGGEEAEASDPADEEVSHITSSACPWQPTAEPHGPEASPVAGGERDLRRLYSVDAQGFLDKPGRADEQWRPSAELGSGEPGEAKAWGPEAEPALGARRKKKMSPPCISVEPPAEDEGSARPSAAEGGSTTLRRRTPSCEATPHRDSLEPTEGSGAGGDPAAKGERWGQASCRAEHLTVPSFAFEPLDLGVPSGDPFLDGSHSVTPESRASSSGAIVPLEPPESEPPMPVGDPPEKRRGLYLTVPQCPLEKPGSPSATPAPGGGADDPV
Test: Inhibition of human CaV3.2 expressed in HEK293 cells assessed as suppression of T-current amplitude by measuring remaining activity at 3 uM after 10 mins by whole cell patch clamp method relative to control
Format: cell-based
Rule: rule met for Activity not less than 70%, rule not met for anything less.

Test whether the compound C=CCc1ccc2c(c1O)C(=O)CC(c1ccc(C)cc1)O2 (stereo unspecified) records Activity of 70% or higher.
rule met

Entry O=C1CC(c2ccc(O)cc2)Oc2cc(O)c(CCC3CCCC3)c(O)c21 (stereo unspecified) please
rule not met

Entry CCOc1ccc(C2CC(=O)c3c(ccc(CC=C(CC)CC)c3O)O2)cc1 (stereo unspecified) please
rule not met

Entry C=CCc1ccc2c(c1O)C(=O)CC(c1ccc(OC)cc1)O2 (stereo unspecified) please
rule not met

Entry C=CCc1ccc2c(c1O)C(=O)CC(c1ccccc1O)O2 (stereo unspecified) please
rule not met

Entry C=CCc1c(O)cc2c(c1O)C(=O)CC(c1ccc(OC)cc1)O2 (stereo unspecified) please
rule not met

Entry CC(C)=CCc1ccc2c(c1O)C(=O)CC(c1ccccc1O)O2 (stereo unspecified) please
rule not met

Entry CC(C)=CCc1c(O)cc2c(c1O)C(=O)CC(c1cc(O)cc(O)c1)O2 (stereo unspecified) please
rule met

Entry CCCC(=CCc1c(O)cc2c(c1O)C(=O)CC(c1ccc(O)cc1)O2)CCC (stereo unspecified) please
rule not met

Entry C=CCc1ccc2c(c1O)C(=O)CC(c1ccc(OCC)cc1)O2 (stereo unspecified) please
rule not met

Entry C=CCc1c(O)cc2c(c1O)C(=O)CC(c1ccc(Cl)cc1)O2 (stereo unspecified) please
rule not met

Entry COc1ccc(C2CC(=O)c3c(ccc(CC=C(C)C)c3O)O2)cc1 (stereo unspecified) please
rule met

Entry CC(C)=CCc1ccc2c(c1O)C(=O)CC(c1ccccc1)O2 (stereo unspecified) please
rule met

Entry CC(C)CCc1c(O)cc2c(c1O)C(=O)CC(c1ccc(O)cc1)O2 (stereo unspecified) please
rule not met

Entry CC(C)=CCc1c(O)cc2c(c1O)C(=O)CC(c1ccc(O)c(O)c1)O2 (stereo unspecified) please
rule not met
